- Subject Of Test: c-Kit kinase (Homo sapiens (Human), UniProt P10721)
- Sequence (P10721 26-976): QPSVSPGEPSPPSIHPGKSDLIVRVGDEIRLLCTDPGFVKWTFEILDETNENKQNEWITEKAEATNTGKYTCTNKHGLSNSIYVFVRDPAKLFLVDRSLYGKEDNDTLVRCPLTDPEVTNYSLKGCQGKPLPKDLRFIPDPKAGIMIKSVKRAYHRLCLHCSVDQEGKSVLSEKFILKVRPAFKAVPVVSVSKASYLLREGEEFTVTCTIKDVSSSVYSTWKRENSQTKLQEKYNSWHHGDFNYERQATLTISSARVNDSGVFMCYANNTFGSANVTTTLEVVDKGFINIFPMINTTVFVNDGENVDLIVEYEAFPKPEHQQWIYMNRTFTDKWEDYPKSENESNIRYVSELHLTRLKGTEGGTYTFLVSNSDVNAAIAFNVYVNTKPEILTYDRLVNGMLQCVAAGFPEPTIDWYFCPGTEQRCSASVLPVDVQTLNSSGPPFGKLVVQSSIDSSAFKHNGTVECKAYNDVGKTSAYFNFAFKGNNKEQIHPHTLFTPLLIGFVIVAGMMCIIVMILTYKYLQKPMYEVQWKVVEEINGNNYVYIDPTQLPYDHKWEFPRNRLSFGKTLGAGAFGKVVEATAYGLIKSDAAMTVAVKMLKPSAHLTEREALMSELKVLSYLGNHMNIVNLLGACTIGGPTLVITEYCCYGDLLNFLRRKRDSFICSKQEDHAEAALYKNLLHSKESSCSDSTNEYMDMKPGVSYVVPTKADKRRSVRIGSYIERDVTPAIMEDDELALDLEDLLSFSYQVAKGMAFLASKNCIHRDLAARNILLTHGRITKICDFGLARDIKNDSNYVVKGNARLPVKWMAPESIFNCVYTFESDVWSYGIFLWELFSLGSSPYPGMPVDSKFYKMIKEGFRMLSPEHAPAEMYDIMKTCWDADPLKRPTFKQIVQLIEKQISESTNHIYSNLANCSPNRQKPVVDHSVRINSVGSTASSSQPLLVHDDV
- Procedure Text: c-Kit biochemical assay (AlphaScreen kinase activity)
Measured Parameter: IC50

Examples with answers:
[
  {
    "Compound": "Cc1nc(C2CCN(c3ncnc4[nH]c(-c5ccnc(N6CCCC6)c5)cc34)CC2)[nH]c1-c1ccccc1 [P-3079]",
    "Result": "0.0001 to 1 µM"
  },
  {
    "Compound": "CCOc1ccc(-c2[nH]c(C3CCN(c4ncnc5[nH]c(-c6ccc(F)cc6)cc45)CC3)nc2C)cc1 [P-3026]",
    "Result": "1 to 10 µM"
  },
  {
    "Compound": "Cc1nc(C2CCN(c3ncnc4[nH]c(-c5ccc(C#N)cc5)cc34)CC2)[nH]c1-c1ccccc1 [P-3047]",
    "Result": "1 to 10 µM"
  },
  {
    "Compound": "CCOc1ccc(-c2[nH]c(C3(C)CCN(c4ncnc5[nH]c(-c6ccc(OCC(=O)O)cc6)cc45)CC3)nc2C)cc1C [P-3244]",
    "Result": "0.0001 to 1 µM"
  },
  {
    "Compound": "COc1cccc(-c2[nH]c(C3(C)CCN(c4ncnc5[nH]c(-c6ccc(OCC(=O)O)cc6)cc45)CC3)nc2C)c1 [P-3221]",
    "Result": "0.0001 to 1 µM"
  }
]

With those in mind, consider the next compound.
Hello, please tell me recorded IC50 for this one: COc1cccc(-c2[nH]c(C3(C)CCN(c4ncnc5[nH]c(-c6ccc(NS(C)(=O)=O)cc6)cc45)CC3)nc2C)c1 [P-3234]
0.0001 to 1 µM

Origin of values: patent US9771369B2
